system: genes regulating the NF-κB pathway in human umbilical vein endothelial cells (HUVEC); assay: NF-κB pathway-specific gene expression microarray in HUVEC treated with PR peptides; format: cell-based; settings: HUVEC, PR peptides 1 μM, 8 hours, relative to untreated controls
Marks after values point to notes of the source that are not given here. Ends that are not written are not given here.
Recorded endpoint: ELK3 gene expression

Solved cases below.
[[record]]
chain_sequence = "ARRPRPPELPR [Peptide A1E8]"
result = "^−1.9^# fold change"

[[record]]
chain_sequence = "RRRPRPPYLPR [PR11, reference compound]"
result = "1.9* fold change"

[[record]]
chain_sequence = "RRAPRPPYLPR [Peptide A3]"
result = "1.3* fold change"

[[record]]
chain_sequence = "ARRPRPPYLPR [Peptide A1]"
result = "0.9 fold change"

[[record]]
chain_sequence = "KRRPRPPELPR [Peptide K1E8]"
result = "^−1.9^# fold change"

[[record]]
chain_sequence = "RKRPRPPYLPR [Peptide K2]"
result = "1.5* fold change"

[[record]]
chain_sequence = "RRKPRPPYLPR [Peptide K3]"
result = "1.4^# fold change"

[[record]]
chain_sequence = "KKKPRPPYLPR [KKK]"
result = "1.4^# fold change"

[[record]]
chain_sequence = "RRRPRPPYLPRW [Peptide W12]"
result = "1.3^# fold change"

[[record]]
chain_sequence = "RARPRPPYLPR [Peptide A2]"
result = "1.0 fold change"


Input: # assay system genes regulating the NF-κB pathway in human umbilical vein endothelial cells (HUVEC): give ELK3 gene expression of RRRPRPPELPRW [Peptide E8W12]
Output: 1.0 fold change

---

System: genes regulating the NF-κB pathway in human umbilical vein endothelial cells (HUVEC)
Test: NF-κB pathway-specific gene expression microarray in HUVEC treated with PR peptides
Type: cell-based
Settings: HUVEC, PR peptides 1 μM, 8 hours, relative to untreated controls
Experimental: Cell Culture. […] Total RNA Extraction and Gene Profiling by Microarray. […] The quality and quantity of total RNA was determined using RNA 6000 Nano chips (Agilent Technology, Santa Clara, Calif.). Gene profiling was performed using pathway-specific gene expression array for NF-κB signaling transduction (HS-016.2, SuperArray Bioscience Corp.). […] After background subtraction, the level of gene expression was determined as signal intensity units relative to total array intensity signal. […]
Marks after values point to notes of the source that are not given here. Ends that are not written are not given here.
Could you please report measured ATF2 gene expression for the items listed next?

Solved cases below.
[[record]]
chain_sequence = "ARRPRPPELPR [Peptide A1E8]"
result = "−1.5* fold change"

[[record]]
chain_sequence = "ARRPRPPYLPR [Peptide A1]"
result = "−1.4* fold change"

[[record]]
chain_sequence = "RRRPRPPELPR [Peptide E8]"
result = "−1.6* fold change"

[[record]]
chain_sequence = "RRAPRPPYLPR [Peptide A3]"
result = "−1.3 fold change"

[[record]]
chain_sequence = "RRRPRPPYLPR [PR11, reference compound]"
result = "−2.1* fold change"

[[record]]
chain_sequence = "RARPRPPYLPR [Peptide A2]"
result = "−1.2 fold change"


Quick request: ATF2 gene expression for each listed item, please.
1. RRRPRPPYLPRW [Peptide W12]
2. RKRPRPPYLPR [Peptide K2]
3. KKKPRPPYLPR [KKK]
4. RRRPRPPELPRW [Peptide E8W12]
5. RRKPRPPYLPR [Peptide K3]
6. KRRPRPPELPR [Peptide K1E8]

Output:
−2.7^# fold change
−2.0^# fold change
−1.3 fold change
−1.8* fold change
−1.6* fold change
−2.6^# fold change
